# Read-out: Secreted IgG (sIgG), gene 3500
# assay-method-text: BSK_BT_sIgG: BioMAP Diversity Plus: BT Assay for Secreted IgG (sIgG) Biomarker Activity (AID 2284226)
# settings: primary human B cells with PBMC
# Experimental: BSK_BT is a cell-based, multiplexed-readout assay that uses B cell and peripheral blood mononuclear cells, a human vascular primary cell co-culture, with measurements taken at 24 hours after chemical dosing in a microplate: 96-well plate.BSK_BT_sIgG is an assay component measured in the BSK_BT assay. […] Using a type of cytokine quantitation reporter, gain or loss-of-signal activity can be used to understand protein changes. […]
The source made the active and inactive calls. Rule for the calls: active = hit-call score of the fitted dose curve at least 0.9, where 1 is the maximum; inactive = score below 0.9.
parameter-measured: AC50

>  <molecule-smiles>
C(=NC1CCCCC1)=NC1CCCCC1

>  <result>
1820 nM (active)

$$$$
>  <molecule-smiles>
O=Cc1cccc(Oc2ccccc2)c1

>  <result>
inactive

$$$$
>  <molecule-smiles>
Oc1c(I)cc(I)cc1I

>  <result>
inactive

$$$$
>  <molecule-smiles>
Nc1ncc([N+](=O)[O-])s1

>  <result>
inactive

$$$$

====

# assay-method-text: ACEA_ER_AUC_viability: ACEA Biosciences xCELLigence Real-Time Cell Analysis on Estrogen Receptor Agonism for Viability (AID 2283782);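 note: continuous compound exposure with impedance area under curve over 80 h; hit means loss of impedance signal meaning reduced cell growth or viability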
Inconclusive results are not listed. Activity calls are given as the source filed them. How the source made its calls: active means hit-call score of the fitted dose curve at least 0.9, where 1 is the maximum; inconclusive means response in the unintended direction; inactive means score below 0.9.

>  <compound>
CC(C)=C[C@@H]1[C@@H](C(=O)OCc2coc(Cc3ccccc3)c2)C1(C)C

>  <AC50>
inactive

$$$$
>  <compound>
COc1cc2c(cc1OC)[C@@]13CCN4CC5=CCO[C@H]6CC(=O)N2[C@H]1[C@H]6[C@H]5C[C@H]43

>  <AC50>
inactive

$$$$
>  <compound>
COc1ccc(C(O)(c2cncnc2)C2CC2)cc1 (stereo unspecified)

>  <AC50>
67.6 µM (active)

$$$$
>  <compound>
ClC1=C(Cl)[C@]2(Cl)[C@H]3[C@H]([C@H]4C=C[C@H]3C4)[C@@]1(Cl)C2(Cl)Cl

>  <AC50>
83.2 µM (active)

$$$$
>  <compound>
CCN1CCC2(CC1)COc1cc3c(cc12)N(C(=O)c1ccc(-c2ccc(-c4nnc(C)o4)cc2C)cc1)CC3

>  <AC50>
8.01 µM (active)

$$$$
>  <compound>
Cn1sc(Cl)cc1=O

>  <AC50>
86.9 µM (active)

$$$$
>  <compound>
C[C@H]1O[C@@H](O[C@H]2[C@@H](O)C[C@H](O[C@H]3[C@@H](O)C[C@H](O[C@H]4CC[C@@]5(C)[C@H](CC[C@@H]6[C@@H]5CC[C@]5(C)[C@@H](C7=CC(=O)OC7)CC[C@]65O)C4)O[C@@H]3C)O[C@@H]2C)C[C@H](O)[C@@H]1O

>  <AC50>
0.159 µM (active)

$$$$
>  <compound>
COC[C@H](C)N(C(=O)CCl)c1c(C)csc1C

>  <AC50>
inactive

$$$$
>  <compound>
CC1(C)CCC(Cc2ccc(Cl)cc2)C1(O)Cn1cncn1 (stereo unspecified)

>  <AC50>
74.5 µM (active)

$$$$
>  <compound>
Nc1ccc(N=Nc2ccc(-c3ccc(N=Nc4c(S(=O)(=O)O)cc5cc(S(=O)(=O)O)c(N=Nc6ccccc6)c(O)c5c4N)cc3)cc2)c(N)c1

>  <AC50>
inactive

$$$$
>  <compound>
C[C@@H](Oc1ccc(Cl)cc1Cl)C(=O)O

>  <AC50>
inactive

$$$$
>  <compound>
O=[N+]([O-])c1ccc2c3c(cccc13)CC2

>  <AC50>
inactive

$$$$
>  <compound>
CCCCCCCCCCCCCCCC[n+]1ccccc1

>  <AC50>
5.69 µM (active)

$$$$
>  <compound>
O=C(c1ccccc1)C(Cl)Cl

>  <AC50>
22.6 µM (active)

$$$$
>  <compound>
CCCCP(CCCC)CCCC

>  <AC50>
27.9 µM (active)

$$$$
>  <compound>
O=[N+]([O-])c1c(Cl)c(Cl)cc(Cl)c1Cl

>  <AC50>
inactive

$$$$
>  <compound>
O=C(O)C(Cl)(Cl)Cl

>  <AC50>
inactive

$$$$
>  <compound>
CCOP(OCC)OCC

>  <AC50>
inactive

$$$$
>  <compound>
CC(=[OH+])/C=C(/C)[O-].CC(=[OH+])/C=C(/C)[O-].CC(=[OH+])/C=C(/C)[O-].[Fe]

>  <AC50>
inactive

$$$$
>  <compound>
C=C(C)C(=O)[O][Sn]([CH2]CCC)([CH2]CCC)[CH2]CCC

>  <AC50>
1.43 µM (active)

$$$$
>  <compound>
COC(=O)c1sccc1S(=O)(=O)NC(=O)Nc1nc(C)nc(OC)n1

>  <AC50>
inactive

$$$$
>  <compound>
COP(=S)(OC)Oc1cc(Cl)c(Br)cc1Cl

>  <AC50>
92.6 µM (active)

$$$$
>  <compound>
CCC(=O)C(CC(C)N(C)C)(c1ccccc1)c1ccccc1 (stereo unspecified)

>  <AC50>
36.2 µM (active)

$$$$
>  <compound>
Nc1cccc(Cl)c1

>  <AC50>
inactive

$$$$
>  <compound>
COP(=S)(OC)Oc1c(Cl)cc(C)cc1Cl

>  <AC50>
inactive

$$$$
>  <compound>
C(=NC1CCCCC1)=NC1CCCCC1

>  <AC50>
28.6 µM (active)

$$$$
>  <compound>
Oc1cccc2cccnc12

>  <AC50>
inactive

$$$$
>  <compound>
Clc1ccc(COC(Cn2ccnc2)c2ccc(Cl)cc2Cl)cc1 (stereo unspecified)

>  <AC50>
21.5 µM (active)

$$$$
>  <compound>
COP(=S)(OC)Oc1ccc(Sc2ccc(OP(=S)(OC)OC)cc2)cc1

>  <AC50>
85.5 µM (active)

$$$$
>  <compound>
CCOC(=O)Nc1cccc(OC(=O)Nc2ccccc2)c1

>  <AC50>
inactive

$$$$
>  <compound>
O=C1C(Cl)=C(Cl)C(=O)c2ccccc21

>  <AC50>
16.7 µM (active)

$$$$
>  <compound>
NC(=S)Nc1ccccc1

>  <AC50>
60.6 µM (active)

$$$$
>  <compound>
CN(C)N=O

>  <AC50>
inactive

$$$$
>  <compound>
CCN(CC)C(=O)Cl

>  <AC50>
inactive

$$$$
>  <compound>
COS(=O)(=O)c1ccc(C)cc1

>  <AC50>
inactive

$$$$
>  <compound>
ClCc1cccnc1

>  <AC50>
50 µM (active)

$$$$
>  <compound>
C=C(C)C#N

>  <AC50>
inactive

$$$$
>  <compound>
CC(C)(C)c1cc(O)ccc1O

>  <AC50>
9.53 µM (active)

$$$$
>  <compound>
N#Cc1ccccn1

>  <AC50>
inactive

$$$$
>  <compound>
C=CCc1ccc(OC)cc1

>  <AC50>
inactive

$$$$
>  <compound>
CCc1ccccc1N

>  <AC50>
inactive

$$$$
>  <compound>
COc1ccc(OC)c(C=O)c1

>  <AC50>
50 µM (active)

$$$$
>  <compound>
O=P(O)(O)c1ccccc1

>  <AC50>
inactive

$$$$
>  <compound>
OCC(O)CCl (stereo unspecified)

>  <AC50>
inactive

$$$$
>  <compound>
O=C(O)Cc1ccccc1

>  <AC50>
50 µM (active)

$$$$
>  <compound>
COP(=O)(OC)O/C(=C\Cl)c1cc(Cl)c(Cl)cc1Cl

>  <AC50>
58.1 µM (active)

$$$$
>  <compound>
CC(C)CCCCCCOC(=O)c1ccccc1C(=O)OCCCCCCC(C)C

>  <AC50>
40.9 µM (active)

$$$$
>  <compound>
CC(=O)c1cc(C(C)(C)C)cc2c1CCC2(C)C

>  <AC50>
inactive

$$$$
>  <compound>
Clc1nc(Cl)nc(Cl)n1

>  <AC50>
inactive

$$$$
>  <compound>
CC(=[OH+])/C=C(/C)[O-].CC(=[OH+])/C=C(/C)[O-].CC(=[OH+])/C=C(/C)[O-].[Al]

>  <AC50>
72.6 µM (active)

$$$$
>  <compound>
CCC[CH2][Sn]([CH2]CCC)([CH2]CCC)[O]C(=O)c1ccccc1

>  <AC50>
1.28 µM (active)

$$$$

====

# system-tested: Cellular tumor antigen p53 (Homo sapiens)
# assay-method-text: TOX21_p53_BLA_p3_ratio: Tox21 HCT-116 p53 Agonism Beta-lactamase Assay, Ratio, Phase 3 (AID 2283596)
Records with an inconclusive call do not appear. Activity calls are given as the source filed them. How the source made its calls: active means hit-call score of the fitted dose curve at least 0.9, where 1 is the maximum; inconclusive means response in the unintended direction; inactive means score below 0.9.
parameter-measured: outcome

>  <molecule-smiles>
O=c1[nH]c(=O)[nH]c(=O)[nH]1

>  <parameter-measured>
outcome

>  <result>
inactive

$$$$
>  <molecule-smiles>
NNC(=S)NN

>  <parameter-measured>
outcome

>  <result>
inactive

$$$$
>  <molecule-smiles>
Cl/C=C\C[N+]12CN3CN(CN(C3)C1)C2

>  <parameter-measured>
outcome

>  <result>
inactive

$$$$
>  <molecule-smiles>
CCOC(=O)/C=C(C)/C=C/C[C@@H](C)CCCC(C)C

>  <parameter-measured>
outcome

>  <result>
inactive

$$$$
>  <molecule-smiles>
C=C(C)C#N

>  <parameter-measured>
outcome

>  <result>
inactive

$$$$
>  <molecule-smiles>
P.[In]

>  <parameter-measured>
outcome

>  <result>
inactive

$$$$
>  <molecule-smiles>
Clc1nc(Cl)nc(Cl)n1

>  <parameter-measured>
outcome

>  <result>
inactive

$$$$
>  <molecule-smiles>
c1cc[c]([Hg][c]2ccccc2)cc1

>  <parameter-measured>
outcome

>  <result>
inactive

$$$$
>  <molecule-smiles>
CC(C)c1ccc(CO)cc1

>  <parameter-measured>
outcome

>  <result>
inactive

$$$$
>  <molecule-smiles>
CCCCP(CCCC)CCCC

>  <parameter-measured>
outcome

>  <result>
inactive

$$$$
>  <molecule-smiles>
COP(=S)(OC)Oc1ccc(Sc2ccc(OP(=S)(OC)OC)cc2)cc1

>  <parameter-measured>
outcome

>  <result>
inactive

$$$$
>  <molecule-smiles>
CCN1CCC2(CC1)COc1cc3c(cc12)N(C(=O)c1ccc(-c2ccc(-c4nnc(C)o4)cc2C)cc1)CC3

>  <parameter-measured>
outcome

>  <result>
inactive

$$$$
>  <molecule-smiles>
CCCCOCCOC(C)=O

>  <parameter-measured>
outcome

>  <result>
inactive

$$$$
>  <molecule-smiles>
CC(=O)c1cc(C(C)(C)C)cc2c1CCC2(C)C

>  <parameter-measured>
outcome

>  <result>
inactive

$$$$
>  <molecule-smiles>
C=CC#N

>  <parameter-measured>
outcome

>  <result>
inactive

$$$$

Data origin, for the record: PubChem BioAssay (EPA / NIEHS)
